tested on: BCRP; assay: Bidirectional transport, NCI-H441 air-liquid culture model; assay type: in vitro ADME, human; conditions: human, with ko143 5 µM; NCI-H441, topotecan 2 μM with BCRP inhibitor ko143 (5 μM); read-out: ER value, inhibitor group
assay endpoint: efflux ratio at 2 h, 2 µM

Record for CC[C@@]1(O)C(=O)OCc2c1cc1n(c2=O)Cc2cc3c(CN(C)C)c(O)ccc3nc2-1 [Topotecan] under target or system BCRP: efflux ratio at 2 h, 2 µM reported as ~1

###

target: UniProt P08183; experiment: Permeability assay, LLC-PK1-MDR1 cells overexpressing P-gp
assay endpoint: Papp A→B at 2 h, 2 µM (×10⁻⁶ cm/s)
Write the answer as a number in ×10⁻⁶ cm/s, unit excluded.

Note to self: Papp A→B at 2 h, 2 µM recorded for COCCc1ccc(OCC(O)CNC(C)C)cc1 (stereo not shown) was 20.4

###

assay: Bidirectional transport, NCI-H441 air-liquid culture model; format: in vitro ADME, human; conditions: human; NCI-H441, 2 μM; read-out: ER
assay endpoint: efflux ratio at 2 h, 2 µM
Enter the number alone.

efflux ratio at 2 h, 2 µM reported for this compound CC[C@@]1(O)C(=O)OCc2c1cc1n(c2=O)Cc2cc3c(CN(C)C)c(O)ccc3nc2-1 : 2.25

###

target: P-gp (MDR1) (Homo sapiens, UniProt P08183); test: Permeability assay, LLC-PK1-MDR1 cells overexpressing P-gp; details: human, LLC-PK1
Sequence (P08183 whole entry): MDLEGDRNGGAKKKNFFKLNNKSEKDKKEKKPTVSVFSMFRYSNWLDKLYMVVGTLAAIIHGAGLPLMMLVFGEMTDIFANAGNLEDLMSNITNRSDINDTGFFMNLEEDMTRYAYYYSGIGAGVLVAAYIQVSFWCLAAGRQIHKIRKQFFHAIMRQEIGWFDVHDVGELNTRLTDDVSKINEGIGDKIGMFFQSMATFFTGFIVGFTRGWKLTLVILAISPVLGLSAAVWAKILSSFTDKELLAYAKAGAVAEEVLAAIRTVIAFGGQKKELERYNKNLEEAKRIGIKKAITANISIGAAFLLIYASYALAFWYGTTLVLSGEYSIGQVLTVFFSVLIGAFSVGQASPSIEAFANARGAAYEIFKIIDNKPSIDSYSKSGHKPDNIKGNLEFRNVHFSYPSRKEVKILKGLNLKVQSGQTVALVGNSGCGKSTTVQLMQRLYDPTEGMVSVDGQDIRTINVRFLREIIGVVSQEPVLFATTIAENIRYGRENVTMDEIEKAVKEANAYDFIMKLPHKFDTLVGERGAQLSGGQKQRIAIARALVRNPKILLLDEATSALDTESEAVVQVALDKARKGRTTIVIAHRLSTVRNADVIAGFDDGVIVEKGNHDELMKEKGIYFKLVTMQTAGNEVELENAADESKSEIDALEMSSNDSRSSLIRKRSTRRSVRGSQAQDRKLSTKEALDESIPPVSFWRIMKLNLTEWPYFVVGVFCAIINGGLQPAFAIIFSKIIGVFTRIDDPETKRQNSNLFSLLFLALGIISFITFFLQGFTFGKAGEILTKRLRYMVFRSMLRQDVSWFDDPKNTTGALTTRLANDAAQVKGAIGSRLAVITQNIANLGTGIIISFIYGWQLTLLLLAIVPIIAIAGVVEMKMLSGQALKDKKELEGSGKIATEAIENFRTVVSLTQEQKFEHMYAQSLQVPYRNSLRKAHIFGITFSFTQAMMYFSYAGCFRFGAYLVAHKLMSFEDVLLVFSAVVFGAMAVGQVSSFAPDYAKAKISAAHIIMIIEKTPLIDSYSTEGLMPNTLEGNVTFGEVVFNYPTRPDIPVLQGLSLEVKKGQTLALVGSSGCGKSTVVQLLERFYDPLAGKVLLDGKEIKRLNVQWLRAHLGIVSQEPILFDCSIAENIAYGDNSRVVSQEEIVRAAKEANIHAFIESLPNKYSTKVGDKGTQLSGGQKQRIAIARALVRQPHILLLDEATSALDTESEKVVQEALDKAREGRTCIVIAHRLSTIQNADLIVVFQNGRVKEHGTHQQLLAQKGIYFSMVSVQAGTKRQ
assay endpoint: Papp B→A at 2 h, 2 µM (×10⁻⁶ cm/s)
Give the quantity in ×10⁻⁶ cm/s, number only.

For reference, reported Papp B→A at 2 h, 2 µM for COCCc1ccc(OCC(O)CNC(C)C)cc1 (centres unmarked) stands at 23.1

Lab note: measured Papp B→A at 2 h, 2 µM of C[C@H]1O[C@@H](O[C@H]2[C@@H](O)C[C@H](O[C@H]3[C@@H](O)C[C@H](O[C@H]4CC[C@@]5(C)[C@H](CC[C@@H]6[C@@H]5C[C@@H](O)[C@]5(C)[C@@H](C7=CC(=O)OC7)CC[C@]65O)C4)O[C@@H]3C)O[C@@H]2C)C[C@H](O)[C@@H]1O was 9.76

###

Record form. Attribute: ER. Fill in for each entry.
test system: NCI-H441/dTHP co-culture model; assay: Bidirectional transport, NCI-H441/dTHP co-culture model; format: in vitro ADME, human; details: NCI-H441/dTHP, 2 μM
API note: the answer field is a bare number with no unit suffix.

Lab note: CC(C)NCC(O)COc1ccc(CC(N)=O)cc1 (stereo not shown) gave ER of 0.88

The recorded ER for CC[C@@]1(O)C(=O)OCc2c1cc1n(c2=O)Cc2cc3c(CN(C)C)c(O)ccc3nc2-1 is 2.15

ER recorded for this molecule, COCCc1ccc(OCC(O)CNC(C)C)cc1 (stereo not shown) , is 0.90

Per the records, this molecule ( CCC(CC)[C@H](NC(C)=O)[C@@H]1[C@H](O)[C@@H](C(=O)O)C[C@H]1N=C(N)N ) has ER equal to 0.75

###

test: Permeability assay, LLC-PK1-MOCK cells; format: in vitro ADME; settings: pig; LLC-PK1, 2 μM, Mean ± SD, n = 3
Kindly state Papp B→A at 2 h, 2 µM for each of the entries shown.
Provide the reading as a plain figure in ×10⁻⁶ cm/s.

Note to self: Papp B→A at 2 h, 2 µM recorded for COCCc1ccc(OCC(O)CNC(C)C)cc1 (centres unmarked) was 25.6

Reported Papp B→A at 2 h, 2 µM ( C[C@H]1O[C@@H](O[C@H]2[C@@H](O)C[C@H](O[C@H]3[C@@H](O)C[C@H](O[C@H]4CC[C@@]5(C)[C@H](CC[C@@H]6[C@@H]5C[C@@H](O)[C@]5(C)[C@@H](C7=CC(=O)OC7)CC[C@]65O)C4)O[C@@H]3C)O[C@@H]2C)C[C@H](O)[C@@H]1O ) = 2.22
